# System: UISO
# Test protocol: qHTS assay to identify novel small-molecules to repurpose for Merkel cell carcinoma treatment (AID 1296009); further: nearly all actives have a fitted effect of over 60% in size; further: potency means the concentration at half of the fitted maximal effect
# Conditions used: MCC and control cell lines, CellTiter-Glo viability, 72 h; series mostly up to 46 µM
Results filed as inconclusive are left out. Activity calls are given as the source filed them. The call rests on the fitted dose curve; in most records, active means well fitted inhibition curve with a large enough effect; inconclusive means small, poorly fitted or top-dose-only effect; inactive means flat fitted curve, though single readings scatter.
Endpoint: Potency

INSERT INTO results (molecule, endpoint, reported_result) VALUES
  ('CCOC(=O)OC(C)OC1=C(C(=O)Nc2ccccn2)N(C)S(=O)(=O)c2ccccc21 (stereo unspecified)', 'Potency', 'inactive'),
  ('CC(C)(C(=O)c1cccnc1)c1cccnc1', 'Potency', 'inactive'),
  ('O=C1c2ccccc2C(=O)C1c1ccccc1', 'Potency', 'inactive'),
  ('CC1(C)O[C@@H]2[C@@H](CO[C@@]3(COS(N)(=O)=O)OC(C)(C)O[C@@H]23)O1', 'Potency', 'inactive'),
  ('CCCSS/C(CCO)=C(\C)N(C=O)Cc1cnc(C)nc1N', 'Potency', '29.9 µM (active)'),
  ('CCCCOc1ccc(OCCCN2CCOCC2)cc1', 'Potency', 'inactive'),
  ('C[C@H]1[C@H](NC(=O)/C(=N/OC(C)(C)C(=O)O)c2csc(N)n2)C(=O)N1S(=O)(=O)O (stereo in doubt)', 'Potency', 'inactive'),
  ('Cc1cc2c(cc1CC(=O)c1sccc1S(=O)(=O)Nc1onc(C)c1Cl)OCO2', 'Potency', 'inactive'),
  ('C[C@H](CCC(=O)O)[C@H]1CC[C@H]2[C@@H]3C(=O)C[C@@H]4CC(=O)CC[C@]4(C)[C@H]3CC(=O)[C@]12C', 'Potency', 'inactive'),
  ('CCCCCCCCCCCCCCCC[N+](C)(C)CCN(Cc1ccc(OC)cc1)c1ncccn1', 'Potency', '10.6 µM (active)'),
  ('CN=C(NC#N)NCCSCc1csc(N=C(N)N)n1', 'Potency', 'inactive'),
  ('Cc1ncc(CSSCc2cnc(C)c(O)c2CO)c(CO)c1O', 'Potency', 'inactive'),
  ('CCN(CCCc1ccccc1)CCCc1ccccc1', 'Potency', 'inactive'),
  ('N[C@@H](CCC(=O)N[C@@H](CS)C(=O)NCC(=O)O)C(=O)O', 'Potency', 'inactive'),
  ('CC(C)n1nc(-c2cc3cc(O)ccc3[nH]2)c2c(N)ncnc21', 'Potency', '9.44 µM (active)'),
  ('O=C(Nc1ccc(Cl)c(Cl)c1)C1CC1', 'Potency', 'inactive'),
  ('CCC(=O)c1c(O)cc(O)cc1O', 'Potency', 'inactive'),
  ('CC(C)(C)NC(=O)[C@@H]1CN(Cc2cccnc2)CCN1C[C@@H](O)C[C@@H](Cc1ccccc1)C(=O)N[C@H]1c2ccccc2C[C@H]1O', 'Potency', 'inactive'),
  ('COCc1c(C(C)C)nc(C(C)C)c(/C=C/[C@@H](O)C[C@@H](O)CC(=O)O)c1-c1ccc(F)cc1', 'Potency', '0.473 µM (active)'),
  ('Oc1c(I)cc(Cl)c2cccnc12', 'Potency', '16.8 µM (active)'),
  ('CC[N+](CC)(CCNC(=O)C(=O)NCC[N+](CC)(CC)Cc1ccccc1Cl)Cc1ccccc1Cl', 'Potency', 'inactive');

====

# Test protocol: qHTS of pediatric cancer cell lines to identify multiple opportunities for drug repurposing: Confirmatory screen for Rh18 cells (AID 1347125);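 further: cells exposed to compound for 48 h; nearly all actives have a fitted effect of over 55% in size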
# Conditions used: Rh18 rhabdomyosarcoma cells, viability; series mostly up to 45.9 µM
Inconclusive results are not listed. Activity calls are given as the source filed them. The call rests on the fitted dose curve; in most records, active means well fitted cell-killing curve with a large enough effect; inconclusive means small, poorly fitted or top-dose-only effect, or effect the other way; inactive means flat fitted curve, though single readings scatter.
Endpoint: outcome

INSERT INTO assay_data (test_smiles, endpoint, reported_result) VALUES
  ('C[C@]12C=CC(=O)C=C1[C@@H](F)C[C@@H]1[C@@H]2[C@@H](O)C[C@@]2(C)[C@H]1CC[C@]2(O)C(=O)CO', 'outcome', 'inactive'),
  ('CC(C)(C(=O)c1cccnc1)c1cccnc1', 'outcome', 'inactive'),
  ('CC(=O)OCC(=O)[C@@]1(O)CC[C@H]2[C@@H]3CCC4=CC(=O)C=C[C@]4(C)[C@H]3[C@@H](O)C[C@@]21C', 'outcome', 'inactive');
